Assay: Crossover pharmacokinetic study in rats after IV or oral MPI8 sulfonate
Type: in vivo, Sprague-Dawley rats
Conditions: male, Sprague-Dawley, in vivo, iv; rat; i.v. 5 mg/kg MPI8 sulfonate; NCA
Protocol: The validated assay was applied in a crossover pharmacokinetic study to evaluate the oral bioavailability of MPI8 sulfonate in rats. […] Male adult Sprague-Dawley rats were purchased from Envigo RMS (Indianapolis, IN, USA). […] Three replicates for each time point were analyzed and the results were reported as mean values with standard deviation (SD) for each time point. […]
recorded_metric: AUC(0-inf)

Record summary for CC(OC(C)(C)C)C(NC(=O)OCc1ccccc1)C(=O)NC(CC1CCCCC1)C(=O)NC(C=O)CC1CCNC1=O (stereo not shown) : reported AUC(0-inf) = 618 ng·h/mL
